test system: PTP-Sap1 R88N; experiment: SPOT analysis, membrane peptides probed with radiolabeled PTP; type: binding; details: 15-mer peptides with phosphotyrosine on membrane
Square brackets hold non-standard residues; d marks the D form. Ends that are not written are not given here. pY = N[C@@H](Cc1ccc(OP(=O)(O)O)cc1)C(=O)O
observation_type: SPOT binding to PTP-Sap1 R88N

substance: EFIpYGSFHQTADPAK (EFI[pY]GSFHQTADPAK) [Sm-15]
observation_type: SPOT binding to PTP-Sap1 R88N
measured: strongest signals
--
substance: EFGATpYGVYTSDPAK (EFGAT[pY]GVYTSDPAK) [Sm-2]
observation_type: SPOT binding to PTP-Sap1 R88N
measured: strongest signals
--
substance: EFpYGQIGDHLVDPAK (EF[pY]GQIGDHLVDPAK) [Sm-11]
observation_type: SPOT binding to PTP-Sap1 R88N
measured: strongest signals
